Assay: Human HepG2 cell viability assay in 384 well format
Format: toxicity, cell-based
Parameters: dose 125 nL, time 70.5 hour; concentration not given beside the values
Settings: HepG2 cells, read-out: Inhibition
Reported Metric: cytotoxicity at 70.5 h (%)
The answer is to be given in %; state only the numeric part.

The examples below pair each entry with its known result.
>>> assay_result("OCCN1CC2(CCN(c3ccccc3)C2)C1")
0.92
>>> assay_result("O=C(CN1CCN(c2ccccc2F)CC1)Nc1ccc(Cl)cn1")
11.6
>>> assay_result("Cc1cc(C)n(C2CN(C(=O)Cn3c(C)cc(=O)c4ccccc43)C2)n1")
-5.3
>>> assay_result("O=C(NCC1CCCCO1)c1ccc(-c2ccco2)[nH]c1=O (configuration not stated)")
-8.49
>>> assay_result("CC(NCc1cc(O)c2cccc(F)c2n1)c1ccccc1O (configuration not stated)")
-10.4

**Query** Looking for the measured cytotoxicity at 70.5 h of CCN(CCO)C(=O)C1CCC(=O)N(CCc2cccc(F)c2)C1 (configuration not stated) , can you help?
**Result** -1.58

**Query** Looking for the measured cytotoxicity at 70.5 h of `CCCn1nc2c(cc1=O)CN(c1ncnc3ccsc13)CC2` , can you help?
**Result** -13

**Query** Looking for the measured cytotoxicity at 70.5 h of Cc1nnsc1C(=O)NCc1cccnc1N1CCCC(O)C1 (configuration not stated) , can you help?
**Result** -15.1

**Query** Looking for the measured cytotoxicity at 70.5 h of COC1CCN(C(=O)Cn2cccc(C(F)(F)F)c2=O)C1 (configuration not stated) , can you help?
**Result** -8.78

// provenance: ChEMBL document CHEMBL3507680
